Task for the reader: assign each of the following binders its reported kon.
- TARGET: T1, soluble heterodimeric hCD3ε/δ.mFc protein (human)
- T1 construct: also called soluble human CD3; soluble heterodimeric CD3 protein
- T1 chain 1: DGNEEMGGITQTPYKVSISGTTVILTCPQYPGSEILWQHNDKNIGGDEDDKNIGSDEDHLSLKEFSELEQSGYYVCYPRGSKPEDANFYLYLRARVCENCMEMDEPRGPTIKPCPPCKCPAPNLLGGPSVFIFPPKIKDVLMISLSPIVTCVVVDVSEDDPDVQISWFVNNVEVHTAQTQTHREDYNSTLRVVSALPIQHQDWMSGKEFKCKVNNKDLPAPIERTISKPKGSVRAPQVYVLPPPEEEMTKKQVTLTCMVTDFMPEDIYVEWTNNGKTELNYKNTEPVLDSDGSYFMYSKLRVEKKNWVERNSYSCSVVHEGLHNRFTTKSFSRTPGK
- T1 chain 2: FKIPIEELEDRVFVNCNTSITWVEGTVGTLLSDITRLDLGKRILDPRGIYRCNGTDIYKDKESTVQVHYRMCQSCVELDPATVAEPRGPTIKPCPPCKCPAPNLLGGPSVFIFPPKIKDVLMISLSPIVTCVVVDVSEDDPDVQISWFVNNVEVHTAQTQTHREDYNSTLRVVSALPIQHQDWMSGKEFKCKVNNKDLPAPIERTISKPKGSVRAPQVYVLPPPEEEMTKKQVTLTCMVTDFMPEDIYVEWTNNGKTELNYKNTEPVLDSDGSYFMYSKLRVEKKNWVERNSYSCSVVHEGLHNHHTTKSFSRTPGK
- ASSAY_COMMENT: SPR MASS-1, 37 C, antigen-capture (hCD3ε/δ.mFc captured), antibody injected
- Method: Measurements were conducted on a Sierra Sensors MASS-1 instrument. In the antigen-capture format, the MASS-1 high-density amine sensor surface was derivatized with a goat anti-mouse IgG2a polyclonal antibody (Southern Biotech). […] Kinetic association (kₐ) and dissociation (kd) rate constants were determined by processing and fitting the data to a 1:1 binding model using MASS-1 AnalyserR2 curve fitting software. […]
One number for each entry, in M⁻¹ s⁻¹.

binder="BSPSMA/CD3-1100 (bispecific antibody, IgG4, V domains shown, modified (chimeric) IgG4 Fc domain; also called PSMA-VH-11810 x CD3-VH-G11) VH 1: QVQLVESGGGVVQPGRSLRLSCAASGFTFSSYGMHWVRQAPGKGLEWVAVISYAGNNKYYADSVKGRFTVSRDNSKKTLYLQMNSLRSEDTAVYYCAKDSYYDFLTDPDVLDIWGQGTMVTVSS VH 2: EVQLVESGGGLVQPGRSLRLSCAASGFTFDDYSMHWVRQAPGKGLEWVSGISWNSGSKGYADSVKGRFTISRDNAKNSLYLQMNSLRAEDTALYYCAKYGSGYGKFYHYGMDVWGQGTTVTVSS VL: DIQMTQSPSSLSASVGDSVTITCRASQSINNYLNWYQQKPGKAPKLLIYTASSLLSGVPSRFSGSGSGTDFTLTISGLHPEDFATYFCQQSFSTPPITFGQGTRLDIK" observed_property=kon value_measured=92100

Let us examine a further case.
q: For the binder BSPSMA/CD3-900 (bispecific antibody, IgG4, V domains shown, modified (chimeric) IgG4 Fc domain; also called PSMA-VH-11810 x CD3-VH-G9) VH 1: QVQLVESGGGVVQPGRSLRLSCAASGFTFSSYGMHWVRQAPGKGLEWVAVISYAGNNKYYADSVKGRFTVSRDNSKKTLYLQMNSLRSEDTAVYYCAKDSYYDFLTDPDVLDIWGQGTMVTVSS VH 2: EVQLVESGGGLVQPGRSLRLSCAASGFTFDDYSMHWVRQAPGKGLEWVSGISWNSGSKGYADSVKGRFTISRDNAKNSLYLQMNSLRAEDTALYYCAKDGSGYGKFYHYGLDVWGQGTTVTVSS VL: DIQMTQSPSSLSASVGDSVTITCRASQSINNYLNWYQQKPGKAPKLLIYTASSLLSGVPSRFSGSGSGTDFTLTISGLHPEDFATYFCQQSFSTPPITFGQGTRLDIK , give its measured kon value.
a: 43800
